Source listed as patent US10925971B2.

Target: T1, monomeric human PRLR (hPRLR.mmh; SEQ ID NO:401) (Homo sapiens, UniProt P16471)
T1 construct: soluble monomeric (hPRLR.mmh); mmh (myc-myc-hexahistidine) (C)
T1 sequence (P16471 with tags, fused parts or gaps): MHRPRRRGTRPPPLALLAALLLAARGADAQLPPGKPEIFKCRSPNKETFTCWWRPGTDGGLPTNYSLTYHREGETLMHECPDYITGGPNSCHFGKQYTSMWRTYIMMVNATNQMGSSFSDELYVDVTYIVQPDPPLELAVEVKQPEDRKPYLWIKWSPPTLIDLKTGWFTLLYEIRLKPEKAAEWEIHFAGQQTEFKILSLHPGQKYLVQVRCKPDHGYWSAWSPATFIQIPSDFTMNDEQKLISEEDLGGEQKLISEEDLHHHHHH
Assay: Surface plasmon resonance (Biacore T200), antibody-capture format
Assay type: binding
Settings: 37° C., analyte hPRLR.mmh

MOLECULE: H1H6795P: fully human anti-PRLR antibody, human IgG1 Fc; HCVR/LCVR SEQ ID NOs 162/170 (antibody, V domains shown) VH: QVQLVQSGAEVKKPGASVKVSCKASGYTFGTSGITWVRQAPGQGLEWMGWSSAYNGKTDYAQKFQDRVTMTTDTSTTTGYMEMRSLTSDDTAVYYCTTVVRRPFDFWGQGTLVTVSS VL: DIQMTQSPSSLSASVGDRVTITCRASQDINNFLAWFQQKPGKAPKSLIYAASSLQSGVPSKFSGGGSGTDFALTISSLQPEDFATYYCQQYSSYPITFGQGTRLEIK
ka: 1.36e+06 M/s
//
MOLECULE: H1H6966N: anti-PRLR antibody, human IgG1 Fc form of H2M6966N of Table 1; HCVR/LCVR SEQ ID NOs 338/346 (antibody, V domains shown, human IgG1 Fc) VH: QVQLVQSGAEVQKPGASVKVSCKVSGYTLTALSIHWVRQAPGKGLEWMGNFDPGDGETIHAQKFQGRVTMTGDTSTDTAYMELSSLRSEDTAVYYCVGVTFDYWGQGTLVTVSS VL: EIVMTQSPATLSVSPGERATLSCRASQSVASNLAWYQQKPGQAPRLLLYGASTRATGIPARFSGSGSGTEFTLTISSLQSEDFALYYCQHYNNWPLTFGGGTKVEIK
ka: 1.58e+06 M/s
//
MOLECULE: H1H6967N: anti-PRLR antibody, human IgG1 Fc form of H2M6967N of Table 1; HCVR/LCVR SEQ ID NOs 354/362 (antibody, V domains shown, human IgG1 Fc) VH: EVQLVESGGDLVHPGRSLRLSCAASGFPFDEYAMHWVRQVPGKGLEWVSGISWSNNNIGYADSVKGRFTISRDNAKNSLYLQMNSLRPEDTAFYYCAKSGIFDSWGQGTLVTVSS VL: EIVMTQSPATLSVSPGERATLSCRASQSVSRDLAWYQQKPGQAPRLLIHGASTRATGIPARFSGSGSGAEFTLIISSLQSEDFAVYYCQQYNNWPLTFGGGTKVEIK
ka: 424000 M/s
//
MOLECULE: H1H6782P: fully human anti-PRLR antibody, non-blocking; HCVR/LCVR SEQ ID NOs 66/74 (antibody, V domains shown) VH: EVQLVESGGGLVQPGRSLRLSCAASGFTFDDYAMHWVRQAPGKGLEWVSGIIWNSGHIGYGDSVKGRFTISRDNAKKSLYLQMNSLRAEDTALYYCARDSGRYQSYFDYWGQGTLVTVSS VL: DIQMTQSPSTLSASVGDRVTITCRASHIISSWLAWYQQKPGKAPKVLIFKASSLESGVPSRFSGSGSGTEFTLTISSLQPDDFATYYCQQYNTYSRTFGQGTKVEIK
ka: 557000 M/s
